target: Rat M4 (Rattus norvegicus, UniProt P08485); construct: expressed in transfected cells; host or cells: CHO-K1 (ATCC), stably co-expressing chimeric G protein Gqi5; assay: mAChR M4 cell-based functional assay (calcium flux, antagonist mode vs EC80 acetylcholine), rat M4/Gqi5/CHO-K1 cells; conditions: CHO-K1; % ACh maximum at 30 μM; rat M4; read-out: Rat M4 Emin (%)
# remaining activity at 30 µM values compiled below
Please state the figure in %; there is no need to write the unit.

These recorded examples may help you get a feel for the data.
compound="CC(=O)Nc1ccc(-c2ccc(N[C@H]3C[C@@H]4CN(C5CCOC(C)(C)C5)C[C@@H]4C3)nn2)cc1 (stereo partly drawn)" target_of_assay="Rat M4 (Rattus norvegicus, UniProt P08485)" assay_readout="remaining activity at 30 µM" recorded_measurement=4
compound=O=S(=O)(c1ccccc1)c1ccc(N[C@H]2C[C@@H]3CN(Cc4ccc5c(c4)OCO5)C[C@@H]3C2)nn1 target_of_assay="Rat M4 (Rattus norvegicus, UniProt P08485)" assay_readout="remaining activity at 30 µM" recorded_measurement=4

Next:
Qu. Dear colleague, please send me the reported remaining activity at 30 µM for CC1(C)CC(N2C[C@H]3C[C@H](Nc4ccc(Cl)nn4)C[C@H]3C2)CCO1 (stereo partly drawn) when you can.
Ans. 38

----------
Biological target: Rat M4 (Rattus norvegicus, UniProt P08485)
Construct: expressed in transfected cells; host or cells: CHO-K1 (ATCC), stably co-expressing chimeric G protein Gqi5
Sequence (P08485 1-478): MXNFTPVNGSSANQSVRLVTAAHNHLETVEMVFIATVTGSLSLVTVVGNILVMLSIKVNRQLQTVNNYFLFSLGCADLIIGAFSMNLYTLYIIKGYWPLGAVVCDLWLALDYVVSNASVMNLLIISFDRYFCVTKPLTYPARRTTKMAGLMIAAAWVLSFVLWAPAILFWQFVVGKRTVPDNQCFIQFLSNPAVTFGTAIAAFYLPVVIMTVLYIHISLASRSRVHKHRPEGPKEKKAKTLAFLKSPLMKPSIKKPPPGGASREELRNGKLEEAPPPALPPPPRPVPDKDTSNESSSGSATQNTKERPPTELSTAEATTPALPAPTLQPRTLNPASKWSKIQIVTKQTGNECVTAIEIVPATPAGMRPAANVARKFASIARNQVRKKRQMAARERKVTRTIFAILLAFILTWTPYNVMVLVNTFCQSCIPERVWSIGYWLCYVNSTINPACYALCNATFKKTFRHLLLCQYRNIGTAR
Experiment: mAChR M4 cell-based functional assay (calcium flux, antagonist mode vs EC80 acetylcholine), rat M4/Gqi5/CHO-K1 cells
Details: CHO-K1; % ACh maximum at 30 μM; rat M4; read-out: Rat M4 Emin (%)
// boundary case: remaining activity at 30 µM equal to 5% maps to FALSE; strictly smaller maps to TRUE

Answered examples (5):
compound="CC1(C)CC(N2C[C@H]3C[C@H](Nc4ccc(-c5cccnc5)nn4)C[C@H]3C2)CCO1 (stereo partly drawn)" label_value=FALSE
compound="CC1(C)CC(N2C[C@H]3C[C@H](Nc4ccc(N5CCOCC5)nn4)C[C@H]3C2)CCO1 (stereo partly drawn)" label_value=FALSE
compound="CC1(C)CC(N2C[C@H]3C[C@H](Nc4ccc(-c5cc(F)ccc5Cl)nn4)C[C@H]3C2)CCO1 (stereo partly drawn)" label_value=TRUE
compound="CC1(C)CC(N2C[C@H]3C[C@H](Nc4ccc(-c5ccccc5F)nn4)C[C@H]3C2)CCO1 (stereo partly drawn)" label_value=FALSE
compound="Cc1cnn(C)c1-c1ccc(N[C@H]2C[C@@H]3CN(C4CCOC(C)(C)C4)C[C@@H]3C2)nn1 (stereo partly drawn)" label_value=FALSE

Qu. Threshold test, remaining activity at 30 µM < 5%: O=S(=O)(c1ccc(N[C@H]2C[C@@H]3CN(Cc4ccc5c(c4)OCO5)C[C@@H]3C2)nn1)C1CCCCC1
Ans. TRUE

Qu. Threshold test, remaining activity at 30 µM < 5%: Cc1cc(CN2C[C@H]3C[C@H](Nc4ccc(S(=O)(=O)c5ccccc5)nn4)C[C@H]3C2)nn1C
Ans. FALSE

Qu. Threshold test, remaining activity at 30 µM < 5%: Fc1ccc(Cl)c(-c2ccc(N[C@H]3C[C@@H]4CN(C5Cc6ccccc6C5)C[C@@H]4C3)nn2)c1
Ans. TRUE

Qu. Threshold test, remaining activity at 30 µM < 5%: O=C(Nc1ccc(F)cc1)c1ccc(N[C@H]2C[C@@H]3CN(CC4CCOCC4)C[C@@H]3C2)nn1
Ans. FALSE

Qu. Threshold test, remaining activity at 30 µM < 5%: [O-][S+](c1ccccc1)c1ccc(N[C@H]2C[C@@H]3CN(CC4CCOCC4)C[C@@H]3C2)nn1 (stereo partly drawn)
Ans. FALSE
